Items are presented alongside their recorded LogP.
assay: Measurement of LogP values by HPLC on reversed phase columns (EEC directive 79/831 Annex V.A8); type: physicochemical
Marks after values point to notes of the source that are not given here.
Measure Name: LogP

[[record]]
compound = "CC(=O)c1cnc(Oc2ccc(Cl)cc2)cc1Cl [V.22]"
measure_name = "LogP"
test_result = "3.51^[a]"

[[record]]
compound = "O=C(CBr)c1ccc(Oc2ccc(Cl)c(Cl)c2)nc1Cl [VI.07]"
measure_name = "LogP"
test_result = "4.58^[a]"

[[record]]
compound = "O=C(Cn1cncn1)c1ccc(Oc2ccc(Cl)cc2)nc1F [VII.25]"
measure_name = "LogP"
test_result = "2.50^[a]"

[[record]]
compound = "O=C(Cn1cncn1)c1cnc(Oc2ccccc2)cc1Cl [VII.05]"
measure_name = "LogP"
test_result = "2.20^[a]"

[[record]]
compound = "OC(Cn1cncn1)c1cnc(Oc2ccc(C(F)(F)F)cc2)cc1Cl (centres unmarked) [I.88]"
measure_name = "LogP"
test_result = "2.64^[a]"

[[record]]
compound = "O=C(Cn1cncn1)c1cnc(Oc2ccc(Br)cc2)cc1C(F)F [VII.41]"
measure_name = "LogP"
test_result = "2.61^[a]"

[[record]]
compound = "OC(Cn1cncn1)c1ccc(Oc2ccc(C(F)(F)F)cc2)nc1C(F)(F)F (single isomer, unassigned) [I.72]"
measure_name = "LogP"
test_result = "2.86^[a]"

[[record]]
compound = "CC(O)(Cn1cncn1)c1ccc(Oc2ccc(OC(F)(F)F)cc2)nc1C(F)(F)F (centres unmarked) [I.95]"
measure_name = "LogP"
test_result = "2.98^[a]"

[[record]]
compound = "O=C(Cn1cncn1)c1ccc(Oc2ccccc2)nc1Cl [VII.06]"
measure_name = "LogP"
test_result = "2.21^[a]"

[[record]]
compound = "CC(=O)c1cnc(Oc2ccc(C(F)(F)F)cc2)cc1C(F)(F)F [V.25]"
measure_name = "LogP"
test_result = "4.04^[a]"

[[record]]
compound = "CC(O)(Cn1cncn1)c1cnc(Oc2ccc(C(F)(F)F)cc2)cc1Cl (centres unmarked) [I.78]"
measure_name = "LogP"
test_result = "2.88^[a]"

[[record]]
compound = "CC(O)(Cn1cncn1)c1ccc(Oc2ccc(Cl)cc2)nc1F (centres unmarked) [I.42]"
measure_name = "LogP"
test_result = "2.46^[a]"

[[record]]
compound = "OC(Cn1cncn1)(c1ccc(Oc2ccc(S(F)(F)(F)(F)F)cc2)nc1C(F)(F)F)C1CC1 (centres unmarked) [I.97]"
measure_name = "LogP"
test_result = "3.80^[a]"

[[record]]
compound = "CC(O)(Cn1cncn1)c1ccc(Oc2ccc(Cl)cc2)nc1Cl (single isomer, unassigned) [I.52]"
measure_name = "LogP"
test_result = "2.62^[a]"

[[record]]
compound = "O=C(CCl)c1ccc(Oc2ccc(Cl)cc2)nc1C(F)F [VI.11]"
measure_name = "LogP"
test_result = "3.62^[a]"

[[record]]
compound = "OC(Cn1cncn1)c1ccc(Oc2cc(F)c(F)c(F)c2)nc1Cl (racemic) [I.20]"
measure_name = "LogP"
test_result = "1.65^[a]"

[[record]]
compound = "FC(F)(F)c1nc(Oc2ccc(Br)cc2)ccc1C1(C2CC2)CO1 (centres unmarked) [IX.08]"
measure_name = "LogP"
test_result = "5.11^[a]"

[[record]]
compound = "CC(=O)c1ccc(Oc2ccc(C(F)F)cc2)nc1C(F)(F)F [V.32]"
measure_name = "LogP"
test_result = "3.26^[a]"

[[record]]
compound = "CC(O)(Cn1cncn1)c1cnc(Oc2ccc(C(F)F)cc2)cc1C(F)(F)F (centres unmarked) [I.56]"
measure_name = "LogP"
test_result = "2.73^[a]"

[[record]]
compound = "CC(=O)c1ccc(Oc2ccc(Cl)cc2)nc1F [V.24]"
measure_name = "LogP"
test_result = "3.51^[a]"

[[record]]
compound = "OC(Cn1cncn1)c1ccc(Oc2ccc(Cl)cc2Cl)nc1Cl (racemic) [I.23]"
measure_name = "LogP"
test_result = "2.75^[a]"

[[record]]
compound = "CC(=O)c1ccc(Oc2ccc(Cl)cc2)nc1Cl [V.26]"
measure_name = "LogP"
test_result = "3.45^[a]"

[[record]]
compound = "OC(Cn1cncn1)c1cnc(Oc2ccc(Br)cc2)cc1C(F)(F)F (centres unmarked) [I.48]"
measure_name = "LogP"
test_result = "2.75^[a]"

[[record]]
compound = "Cc1cc(Cl)ccc1Oc1ccc(C(O)Cn2cncn2)c(Cl)n1 (racemic) [I.15]"
measure_name = "LogP"
test_result = "2.75^[a]"

[[record]]
compound = "CC(=O)c1ccc(Oc2c(F)cc(Cl)cc2F)nc1C(F)(F)F [V.31]"
measure_name = "LogP"
test_result = "4.06^[a]"

[[record]]
compound = "OC(Cn1cncn1)c1cnc(Oc2ccc(C(F)(F)F)cc2)cc1C(F)(F)F (single isomer, unassigned) [I.92]"
measure_name = "LogP"
test_result = "2.86^[a]"

[[record]]
compound = "OC(Cn1cncn1)c1ccc(Oc2ccc(S(F)(F)(F)(F)F)cc2)nc1C(F)(F)F (centres unmarked) [I.60]"
measure_name = "LogP"
test_result = "3.08^[a]"

[[record]]
compound = "O=C(CBr)c1cnc(Oc2ccc(Br)cc2)cc1C(F)(F)F [VI.15]"
measure_name = "LogP"
test_result = "4.34^[a]"

[[record]]
compound = "OC(Cn1cncn1)c1ccc(Oc2ccc(Cl)cc2F)nc1C(F)(F)F (centres unmarked) [I.90]"
measure_name = "LogP"
test_result = "2.88^[a]"

[[record]]
compound = "COc1ccc(Oc2ccc(C(O)Cn3cncn3)c(Cl)n2)c(Cl)c1 (racemic) [I.30]"
measure_name = "LogP"
test_result = "2.32^[a]"

[[record]]
compound = "O=C(CCl)c1cnc(Oc2ccc(Br)cc2)cc1C(F)(F)F [VI.23]"
measure_name = "LogP"
test_result = "4.16^[a]"

[[record]]
compound = "CC(O)(Cn1cncn1)c1cnc(Oc2ccc(Cl)cc2)cc1Cl (single isomer, unassigned) [I.53]"
measure_name = "LogP"
test_result = "2.53^[a]"

